- Measured on: T1, human Claudin 18.2 (CLDN18.2) (human, UniProt P56856-2 1-261)
- T1 construct: whole, on cells; recombinantly expressed on CHO, HEK293, NCI-N87, NUGC4 or PANC-1 cells; also called CHO-CLDN18.2
- Experiment summary: FACS on CHO-CLDN18.2 cells
pEC50: −log10 of the molar value.

Binder: 364D1A7-H2L3 (antibody, V domains shown, humanized IgG; constant regions not specified) VH: EVQLVESGGGLVQPGGSLRLSCAASGFTFSSFGMHWVRQAPGKGLEWVAYISSGSGSIYYADTVKGRFTISRDNPKNSLYLQMNSLRAEDTAVYYCATSYYYGNALEYWGQGTTVTVSS VL: DVVLTQSPDSLAVSLGERATINCKSSQSLFNVGNQKNYLTWYQQKPGQTPKLLIYWASTRKSGVPDRFSGSGSGTDFTLTISSLQAEDVAVYYCQNVYSYPLTFGGGTKVEIK
pEC50: 8.36
